test system: M. mycetomatis genome strain MM55; assay: CLSI M38-A2 based in vitro susceptibility screening (XTT or resazurin), growth at fixed concentration; assay type: cell-based, Madurella mycetomatis; conditions: Madurella mycetomatis, 100 uM, replicate 1; read-out: Percentage survival at 100um, 100 uM A (first replicate column)
# activity at 100 µM annotations

[
  {
    "COMPOUND": "CC(C)Cn1c(=O)n(C)c(=O)c2c(-c3cncn3C)n(Cc3cccc4ccccc34)nc21 [MMV1581559]",
    "activity at 100 µM": "1.05%"
  },
  {
    "COMPOUND": "CCOc1ccc(/C=N/NC(=O)C2CC2c2ccc(C(C)(C)C)cc2)cc1OCC (centres unmarked) [MMV1634398]",
    "activity at 100 µM": "88.5%"
  },
  {
    "COMPOUND": "Cc1ncc([N+](=O)[O-])n1CC(C)O (centres unmarked) [MMV002287]",
    "activity at 100 µM": "89.4%"
  },
  {
    "COMPOUND": "CCC(C)NCC(O)Cn1c2ccc(Cl)cc2c2cc(Cl)ccc21 (centres unmarked) [MMV1578570]",
    "activity at 100 µM": "1.05%"
  },
  {
    "COMPOUND": "CCN(CC)CCCC(C)Nc1ccnc2cc(Cl)ccc12 (centres unmarked) [MMV000008]",
    "activity at 100 µM": "45.5%"
  }
]
